System: HT29 colon
Test Description: NCI tumour cell line growth inhibition, 48 h; in the data active means GI50 below about 0.43 µM; inactive means the rest
Choose the fitting class; nothing outside Y (active), N (inactive) is accepted.

Exercise: Hi, sorry to bother you, what did the test record for COc1ccc(Nc2ccnc(NCCNc3ccnc4cc(Cl)ccc34)n2)cc1 ?
Solution: N

Exercise: Queued: CN(C)C(=S)NN=C(c1ccccn1)c1ccccn1
Solution: Y

Exercise: Would you mind doing Cc1nc2cncc(C#Cc3cncc(C(=O)Nc4ccc(CN5CCN(C)CC5)c(C(F)(F)F)c4)c3)c2nc1C as well?
Solution: Y

Exercise: Okay, and N#Cc1cccc(C(=O)c2cnn(-c3ccc(F)cc3)c2N)c1 ?
Solution: N

Exercise: Next compound: Nc1ccc(N=Nc2ccccc2)c(N)n1
Solution: N

Exercise: Next entry: CC/C=C\C/C=C\C[C@H](O)C/C=C1/C(=O)C=C[C@H]1C/C=C\CCC(=O)OC
Solution: N

Exercise: Record: CN(C)/C=C/c1nnnn1-c1ccc(Cl)cc1
Solution: N

Exercise: What about Cc1ccccc1S(=O)(=O)N1[C@H](c2ccc(Cl)cc2)C(C(=O)N[C@@H](Cc2ccccc2)C(N)=O)=C[C@@H]1C(C)(C)C ?
Solution: N

Exercise: Please answer likewise for O=[N+]([O-])c1cc(O)c(O)cc1-c1cn2ccsc2n1
Solution: N

Exercise: Let us now turn to Nc1ccc(-c2nc3ccccc3[nH]2)c(O)c1
Solution: N

Exercise: Same lookup for NC(=O)C(Br)CBr (stereo unspecified) , please.
Solution: N

---

Hi there, I'd appreciate the recorded TGI for every entry that follows.
Test system: U251 CNS
Test Description: NCI tumour cell line growth inhibition, 48 h
Please reply with the bare figure in µM and do not write the unit itself.

Exercise: Endpoint output: TGI of Cc1[nH]c(C(=O)Nc2ccc(C(=O)N3CCNCC3)cc2OC(C)C)c(Cl)c1Cl . Value?
Solution: 3.46

Exercise: Record: Cc1cc(Nc2ccc(N=Nc3ccc(O)c4ncccc34)cc2)nc(C)n1
Solution: 33.4

Exercise: Field entry: CSc1ccc(-c2cc(-c3ccc(NC(=O)CCCN4CCCC4)cc3)nc(-c3ccc(NC(=O)CCCN4CCCC4)cc3)c2)cc1
Solution: 3.12

Exercise: Entry COC(=O)c1ccc(CCc2cc(O)ccc2O)cc1 please
Solution: 33.2

Exercise: Try the compound COc1ccc(C(O)c2cc3c(N)c(C(=O)Nc4cccc(Cl)c4C)sc3nc2C)cc1 (stereo not drawn)
Solution: 1.57

Exercise: Can you handle COc1ccccc1/C=C1\CCC(CNc2ccc(Cl)cc2)C1=O (stereo not drawn) next?
Solution: 23.2

Exercise: Now give it for CCN(CC)c1ccc(N=C2C=CC(=O)c3ncccc32)c(C)c1 too.
Solution: 19.6

Exercise: Lookup CC1CC[C@@]2(OC1)O[C@H]1C[C@H]3[C@@H]4CC[C@H]5C[C@@H](OC6OC(CO)C(OC7OC(CO)C(OC8OC(CO)C(O)C(OC9OC(C)C(OC%10OC(C)C(O)C(O)C%10O)C(O)C9O)C8OC8OCC(O)C(O)C8O)C(O)C7O)C(O)C6O)CC[C@]5(C)[C@H]4CC(=O)[C@]3(C)[C@H]1[C@@H]2C (stereo partly drawn)
Solution: 33.3

---

Tested on: SK-OV-3 ovarian
Test Description: NCI tumour cell line growth inhibition, 48 h; in the data active = GI50 below about 0.43 µM; inactive = the rest
Field 'call' accepts active, inactive

Exercise: Identify the outcome logged in this assay for the molecule shown: O=C1c2ccccc2-c2c1c1ccc([N+](=O)[O-])cc1c(=O)n2CCNCCCNCCn1c2c(c3ccc([N+](=O)[O-])cc3c1=O)C(=O)c1ccccc1-2
Solution: inactive

Exercise: Same read-out for C=C1C(=O)O[C@H]2[C@H]1CC/C(CNC(=O)/C=C/c1cccc(OC)c1)=C\CC[C@@]1(C)O[C@@H]21 ?
Solution: inactive

Exercise: Now the molecule C[C@@H]1COCCN1c1nc(-c2cnc(N)cc2C(F)F)nc(N2[C@H](C)COC[C@@H]2C)n1
Solution: active

Exercise: Can you handle NC1CCCCC1N.O=C([O-])P(=O)([O-])[O-].[Na+].[Pt+4] (stereo not drawn) next?
Solution: inactive

Exercise: Then Fc1ccc(C2CC(c3cccc(Nc4ccncc4)c3)=NN2c2cc(Cl)cc(Cl)c2)cc1 (stereo not drawn) ?
Solution: inactive

Exercise: Same question, CCN(CC)CCOc1ccc(Nc2ncc3cc(-c4c(Cl)cccc4Cl)c(=O)n(CCOC)c3n2)cc1 this time
Solution: active

Exercise: Now consider Nc1nc2c(c3ncccc13)C(c1ccc(Cl)c(Cl)c1)Cc1ncccc1-2 (stereo not drawn) .
Solution: inactive

Exercise: // next record Nc1ccccc1NC(=O)CCCCCCC(=O)Nc1ccc2c(c1)/C(=C/c1ccc[nH]1)C(=O)N2
Solution: inactive

---

Test system: UACC-62 melanoma
Test Description: NCI tumour cell line growth inhibition, 48 h
Can you tell me TGI for the items I'm about to list?
Write down the numeric answer in µM and omit the unit.

Exercise: Item under review: COc1cc2c(c(OC)c1OC)-c1ccc(NNC(=S)N(Cc3cccc(C[N+](Cc4cccc(CNC56CC7CC(CC(C7)C5)C6)c4)(Cc4cccc(CNC56CC7CC(CC(C7)C5)C6)c4)Cc4cccc(CN(C(=S)NNc5ccc6c(cc5=O)[C@@H](NC(C)=O)CCc5cc(OC)c(OC)c(OC)c5-6)C56CC7CC(CC(C7)C5)C6)c4)c3)C34CC5CC(CC(C5)C3)C4)c(=O)cc1[C@@H](NC(C)=O)CC2 (stereo not given in full) . Reported TGI?
Solution: 6.38

Exercise: Lookup Nc1nc2c(c3ncccc13)C(c1ccc(Cl)c(Cl)c1)Cc1ncccc1-2 (stereo not given)
Solution: 12.5

Exercise: Also, O=C1c2ccccc2C(=O)c2c1ccc1c2N=C(c2ccc(F)cc2)CC(c2ccc(Cl)c(Cl)c2)N1 (stereo not given) please.
Solution: 25.7

Exercise: Follow-up item: C=C(CC(=O)Nc1ccc(C(=O)OC)o1)C(=O)OC
Solution: 72.4

Exercise: Same lookup for Cc1nc2cncc(C#Cc3cncc(C(=O)Nc4ccc(CN5CCN(C)CC5)c(C(F)(F)F)c4)c3)c2nc1C , please.
Solution: 1.47

Exercise: Same for CCOC(=O)c1c2c(n3ccc(NC(=O)OC(C)(C)C)cc13)C(=O)c1ncccc1C2=O
Solution: 0.639

Exercise: Another compound to check: CCOC(=O)c1c2c(n(-c3ccc(OC)cc3)c1C)C(=O)C(=O)c1ccccc1-2
Solution: 3.28

Exercise: Subsequent entry: COc1ccc(Nc2ncccc2/C=C/C(=O)c2cc(OC)c(OC)c(OC)c2)cc1
Solution: 3.3

Exercise: Next compound up: OCc1cccc(-c2ccc3ncc(-c4nc(NC5CC5)ncc4F)n3c2)c1
Solution: 0.698

Exercise: Continue with C=C1C(=O)O[C@H]2[C@H]1CC/C(CNS(=O)(=O)c1ccc3ccccc3c1)=C\CC[C@@]1(C)O[C@@H]21
Solution: 4.01

---

For each of the compounds below, state its TGI.
Test system: MDA-N
Test Description: NCI tumour cell line growth inhibition, 48 h

Exercise: Value lookup for TGI; key = CC1(C)[C@@H](Cn2cnc3c(=O)[nH]c(N)nc32)CC[C@@]1(C)CO
Solution: > 100 µM

Exercise: Lookup Cc1ccc(NC(=S)Nc2c(C)n(C)n(-c3ccccc3)c2=O)cc1
Solution: > 100 µM

Exercise: How about this compound: COC(=O)/C=C\C(C#N)(C#N)N=Cc1ccc(C)s1
Solution: 6.94 µM

Exercise: Input O=c1[nH]c(=O)n(COCc2ccccc2)c2ccc(Br)cc12
Solution: > 100 µM

Exercise: Moving on to C1#Cc2ccccc2OCCOc2ccccc2C#Cc2ccccc2OCCOc2ccccc21
Solution: > 100 µM

Exercise: Also, OCC(Cn1cncn1)(c1ccc(F)cc1F)n1cncn1 (stereo unspecified) please.
Solution: > 100 µM

---

System: LOX IMVI melanoma
Test Description: NCI tumour cell line growth inhibition, 48 h
Readout Kind: TGI

Exercise: I am curious: what TGI value has been reported for NC(=O)C(Br)CBr (stereo unspecified) ?
Solution: 5.93 µM

Exercise: Also, COc1ccc(Nc2ncccc2/C=C/C(=O)c2cc(OC)c(OC)c(OC)c2)cc1 please.
Solution: 2.48 µM

Exercise: # iterate: OCCN(CCO)c1cccc(N(CCO)CCO)c1
Solution: > 100 µM

Exercise: Queued: CCON=C1C(C)(C)C(C)(C)C(C)(C)C1(C)C
Solution: > 100 µM

Exercise: Can you handle Cc1ccc(S(=O)(=O)NC(=O)NCCC(=O)O)cc1 next?
Solution: > 100 µM

Exercise: Could you do the same for C[C@]12CC/C(=N\N)C[C@@H]1CC[C@@H]1[C@@H]2CC[C@]2(C)/C(=N/N)CC[C@@H]12 , please?
Solution: > 100 µM

Exercise: Next: CCOCC(=O)N[C@H]1CCc2cc(OC)c(OC)c(OC)c2-c2ccc(SC)c(=O)cc21
Solution: 69 µM

Exercise: Next: CS(=O)(=O)N(CCC#N)c1ccc(/C=N/NC(=O)CC(=O)Nc2cccc(Cl)c2)cc1
Solution: > 100 µM

Exercise: Now the molecule N#CC(C#N)=Cc1c(O)ccc2ccccc12
Solution: 26.6 µM

Exercise: Cn1ccnc1C(c1nccn1C)C(C)(C)[N+](=O)[O-] ?
Solution: > 100 µM

Exercise: // same read-out, input: O=C(Nc1nnc(-c2ccccc2)o1)C(SC(=S)N1CCOCC1)c1ccccc1 (stereo unspecified)
Solution: > 100 µM
